B1: library; numbered along this chain (parent)
chain: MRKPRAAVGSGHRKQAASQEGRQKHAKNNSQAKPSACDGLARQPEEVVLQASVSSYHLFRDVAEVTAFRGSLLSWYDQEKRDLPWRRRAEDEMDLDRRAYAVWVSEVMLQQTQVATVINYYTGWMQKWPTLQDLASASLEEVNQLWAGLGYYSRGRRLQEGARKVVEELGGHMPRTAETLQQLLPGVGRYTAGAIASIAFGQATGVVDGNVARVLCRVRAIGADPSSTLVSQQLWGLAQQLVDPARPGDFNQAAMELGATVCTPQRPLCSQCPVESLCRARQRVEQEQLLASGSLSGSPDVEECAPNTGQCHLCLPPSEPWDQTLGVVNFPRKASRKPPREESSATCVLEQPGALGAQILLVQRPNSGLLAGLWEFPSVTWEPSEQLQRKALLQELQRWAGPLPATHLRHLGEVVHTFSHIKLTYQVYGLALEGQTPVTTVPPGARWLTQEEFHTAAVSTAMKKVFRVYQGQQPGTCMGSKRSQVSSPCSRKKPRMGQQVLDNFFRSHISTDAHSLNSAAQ

Variants of: B1
Experiment: 8OG:A repair function score (normalized; synonymous = 0, nonsense = -1) (normalized log-likelihood score); higher = more repair activity (WT-like);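 note: cells sorted at 72 h after reporter transfection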
Settings: with 8OG:A DNA repair reporter (GFP) in HEK-293 MUTYH KO cells
Recorded 8OG:A repair function score split into classes low bin (below -0.5), mid bin (-0.5 to below -0.06), high bin (-0.06 or more)

{"sequence.change": "S105E", "assigned.class": "low bin"}
{"sequence.change": "L369N", "assigned.class": "high bin"}
{"sequence.change": "D243N", "assigned.class": "low bin"}
{"sequence.change": "G368F", "assigned.class": "low bin"}
{"sequence.change": "G372I", "assigned.class": "low bin"}

Req: GET /class?item= S197T
Resp: low bin

Req: GET /class?item= C272L
Resp: low bin

Req: GET /class?item= H416A
Resp: mid bin

Req: GET /class?item= A391R
Resp: mid bin

Req: GET /class?item= P316S
Resp: mid bin

Req: GET /class?item= L393D
Resp: mid bin

Req: GET /class?item= W85K
Resp: low bin

Req: GET /class?item= P34K
Resp: high bin

Req: GET /class?item= N119A
Resp: high bin

Req: GET /class?item= L277Q
Resp: mid bin

Req: GET /class?item= Q43C
Resp: high bin

Req: GET /class?item= A259E
Resp: high bin

Req: GET /class?item= A354F
Resp: high bin

Req: GET /class?item= Q233N
Resp: high bin

Req: GET /class?item= P264L
Resp: mid bin
